total FIC50 values by entry
test system: Mycobacterium tuberculosis Erdman (autoluminescent); test: total FIC50 (Loewe) at 50% inhibition, three-drug combination (log2); higher = more antagonistic; conditions: in vitro model: standard 7H9 glycerol; time point: constant = terminal

| COMPOUND | STUDY_SYSTEM | total FIC50 |
| --- | --- | --- |
| CC(C)/N=c1\cc2n(-c3ccc(Cl)cc3)c3ccccc3nc-2cc1Nc1ccc(Cl)cc1 [clofazimine] + NNC(=O)c1ccncc1 [isoniazid] + NC(=O)c1cnccn1 [pyrazinamide] | Mycobacterium tuberculosis Erdman (autoluminescent) | 0.447 |
| NNC(=O)c1ccncc1 [isoniazid] + NC(=O)c1cnccn1 [pyrazinamide] + CO[C@H]1/C=C/O[C@@]2(C)Oc3c(C)c(O)c4c(O)c(c(/C=N/N5CCN(C)CC5)c(O)c4c3C2=O)NC(=O)/C(C)=C\C=C\[C@H](C)[C@H](O)[C@@H](C)[C@@H](O)[C@@H](C)[C@H](OC(C)=O)[C@@H]1C [rifampicin] | Mycobacterium tuberculosis Erdman (autoluminescent) | -5.81 |
| CC(C)/N=c1\cc2n(-c3ccc(Cl)cc3)c3ccccc3nc-2cc1Nc1ccc(Cl)cc1 [clofazimine] + NNC(=O)c1ccncc1 [isoniazid] + O=[N+]([O-])c1cn2c(n1)OC[C@@H](OCc1ccc(OC(F)(F)F)cc1)C2 [pretomanid] | Mycobacterium tuberculosis Erdman (autoluminescent) | 0.139 |
| COc1nc2ccc(Br)cc2cc1[C@@H](c1ccccc1)[C@@](O)(CCN(C)C)c1cccc2ccccc12 [bedaquiline] + NNC(=O)c1ccncc1 [isoniazid] + CO[C@H]1/C=C/O[C@@]2(C)Oc3c(C)c(O)c4c(O)c(c(/C=N/N5CCN(C)CC5)c(O)c4c3C2=O)NC(=O)/C(C)=C\C=C\[C@H](C)[C@H](O)[C@@H](C)[C@@H](O)[C@@H](C)[C@H](OC(C)=O)[C@@H]1C [rifampicin] | Mycobacterium tuberculosis Erdman (autoluminescent) | 0.27 |
| CC(C)/N=c1\cc2n(-c3ccc(Cl)cc3)c3ccccc3nc-2cc1Nc1ccc(Cl)cc1 [clofazimine] + CC[C@@H](CO)NCCN[C@@H](CC)CO [ethambutol] + O=[N+]([O-])c1cn2c(n1)OC[C@@H](OCc1ccc(OC(F)(F)F)cc1)C2 [pretomanid] | Mycobacterium tuberculosis Erdman (autoluminescent) | -0.284 |
| COc1nc2ccc(Br)cc2cc1[C@@H](c1ccccc1)[C@@](O)(CCN(C)C)c1cccc2ccccc12 [bedaquiline] + CC[C@@H](CO)NCCN[C@@H](CC)CO [ethambutol] + CC(=O)NC[C@H]1CN(c2ccc(N3CCOCC3)c(F)c2)C(=O)O1 [linezolid] | Mycobacterium tuberculosis Erdman (autoluminescent) | 0.387 |
| NNC(=O)c1ccncc1 [isoniazid] + COc1c(N2C[C@@H]3CCCN[C@@H]3C2)c(F)cc2c(=O)c(C(=O)O)cn(C3CC3)c12 [moxifloxacin] + CO[C@H]1/C=C/O[C@@]2(C)Oc3c(C)c(O)c4c(O)c(c(/C=N/N5CCN(C)CC5)c(O)c4c3C2=O)NC(=O)/C(C)=C\C=C\[C@H](C)[C@H](O)[C@@H](C)[C@@H](O)[C@@H](C)[C@H](OC(C)=O)[C@@H]1C [rifampicin] | Mycobacterium tuberculosis Erdman (autoluminescent) | 0.736 |

###

tested on: Mycobacterium tuberculosis Erdman (autoluminescent); assay: total FIC50 (Loewe) at 50% inhibition, three-drug combination (log2); higher = more antagonistic; conditions: in vitro model: cholesterol 0.05 mM; time point: terminal (~4-5 doublings, model-specific)
total FIC50 values by entry
METRIC_NAME: total FIC50

| COMPOUND | READOUT_VALUE |
| --- | --- |
| NC(=O)c1cnccn1 [pyrazinamide] + CO[C@H]1/C=C/O[C@@]2(C)Oc3c(C)c(O)c4c(O)c(c(/C=N/N5CCN(C6CCCC6)CC5)c(O)c4c3C2=O)NC(=O)/C(C)=C\C=C\[C@H](C)[C@H](O)[C@@H](C)[C@@H](O)[C@@H](C)[C@H](OC(C)=O)[C@@H]1C [rifapentine] + CO[C@H]1/C=C/O[C@@]2(C)Oc3c(C)c(O)c4c(O)c(c(/C=N/N5CCN(C)CC5)c(O)c4c3C2=O)NC(=O)/C(C)=C\C=C\[C@H](C)[C@H](O)[C@@H](C)[C@@H](O)[C@@H](C)[C@H](OC(C)=O)[C@@H]1C | 0.707 |
| COc1nc2ccc(Br)cc2cc1[C@@H](c1ccccc1)[C@@](O)(CCN(C)C)c1cccc2ccccc12 [bedaquiline] + COc1c(N2C[C@@H]3CCCN[C@@H]3C2)c(F)cc2c(=O)c(C(=O)O)cn(C3CC3)c12 [moxifloxacin] + NC(=O)c1cnccn1 [pyrazinamide] | 0.205 |
| CC[C@@H](CO)NCCN[C@@H](CC)CO [ethambutol] + CC(=O)NC[C@H]1CN(c2ccc(N3CCOCC3)c(F)c2)C(=O)O1 [linezolid] + NC(=O)c1cnccn1 [pyrazinamide] | -1.33 |
| CC(=O)NC[C@H]1CN(c2ccc(N3CCOCC3)c(F)c2)C(=O)O1 [linezolid] + O=[N+]([O-])c1cn2c(n1)OC[C@@H](OCc1ccc(OC(F)(F)F)cc1)C2 [pretomanid] + CO[C@H]1/C=C/O[C@@]2(C)Oc3c(C)c(O)c4c(O)c(c(/C=N/N5CCN(C)CC5)c(O)c4c3C2=O)NC(=O)/C(C)=C\C=C\[C@H](C)[C@H](O)[C@@H](C)[C@@H](O)[C@@H](C)[C@H](OC(C)=O)[C@@H]1C [rifampicin] | 0.545 |
| NNC(=O)c1ccncc1 [isoniazid] + CO[C@H]1/C=C/O[C@@]2(C)Oc3c(C)c(O)c4c(O)c(c(/C=N/N5CCN(C6CCCC6)CC5)c(O)c4c3C2=O)NC(=O)/C(C)=C\C=C\[C@H](C)[C@H](O)[C@@H](C)[C@@H](O)[C@@H](C)[C@H](OC(C)=O)[C@@H]1C [rifapentine] + CO[C@H]1/C=C/O[C@@]2(C)Oc3c(C)c(O)c4c(O)c(c(/C=N/N5CCN(C)CC5)c(O)c4c3C2=O)NC(=O)/C(C)=C\C=C\[C@H](C)[C@H](O)[C@@H](C)[C@@H](O)[C@@H](C)[C@H](OC(C)=O)[C@@H]1C [rifampicin] | 0.447 |
| CC(C)/N=c1\cc2n(-c3ccc(Cl)cc3)c3ccccc3nc-2cc1Nc1ccc(Cl)cc1 [clofazimine] + COc1c(N2C[C@@H]3CCCN[C@@H]3C2)c(F)cc2c(=O)c(C(=O)O)cn(C3CC3)c12 [moxifloxacin] + CO[C@H]1/C=C/O[C@@]2(C)Oc3c(C)c(O)c4c(O)c(c(/C=N/N5CCN(C6CCCC6)CC5)c(O)c4c3C2=O)NC(=O)/C(C)=C\C=C\[C@H](C)[C@H](O)[C@@H](C)[C@@H](O)[C@@H](C)[C@H](OC(C)=O)[C@@H]1C [rifapentine] | 1.24 |

The reported numbers originate from the supplement of paper PMC8617591.
